Test: viability loss in pontine glioma line – cell-based, SU-DIPG-XXV, MIPE5.0, CellTiter-Glo, qHTS, dose response (AID 1347065);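 also: cells exposed to compound for 48 hours before ATP readout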
Settings: CellTiter-Glo ATP luminescence
Results filed as inconclusive are left out. Calls of active or inactive are those of the source. The limit is not given here; nearly all actives have AC50 up to about 26 µM.
Outcome codes: active, inactive

[
  {
    "Compound": "CC(C)c1nn(-c2c(Cl)cccc2Cl)c2nc(Cc3ccc(OCCO)cc3)[nH]c(=O)c12",
    "Assigned Category": "active"
  },
  {
    "Compound": "COc1ccc(/C=C\\c2cc(OC)c(OC)c(OC)c2)cc1NC(=O)[C@H](N)CO",
    "Assigned Category": "active"
  },
  {
    "Compound": "CCNCc1nc2c(N)nc3ccccc3c2n1CC(C)(C)O",
    "Assigned Category": "inactive"
  },
  {
    "Compound": "CN1c2cc(O)c(N=NC(N)=O)cc2CC1S(=O)(=O)O (stereo not given)",
    "Assigned Category": "inactive"
  },
  {
    "Compound": "CCCOc1ccn2c(C(C)=O)cc(-c3ccccc3S(C)(=O)=O)c2c1",
    "Assigned Category": "inactive"
  },
  {
    "Compound": "C=Cc1cc(O)cc2nc(-c3ccc(O)c(F)c3)oc12",
    "Assigned Category": "inactive"
  },
  {
    "Compound": "CCOc1cc2ncc(C#N)c(Nc3ccc(F)c(Cl)c3)c2cc1NC(=O)/C=C/CN(C)C",
    "Assigned Category": "active"
  },
  {
    "Compound": "NC(CC1c2ccccc2Oc2ccccc21)(C(=O)O)C1CC1C(=O)O (stereo not given)",
    "Assigned Category": "inactive"
  },
  {
    "Compound": "CCC(=O)NC[C@H](Cc1ccc(OCCc2nc(-c3ccccc3)oc2C)cc1)N/C(C)=C\\C(=O)c1ccc(C(F)(F)F)cc1",
    "Assigned Category": "active"
  },
  {
    "Compound": "Cc1cc(C(=O)NOCCO)c(Nc2ccc(I)cc2F)n(C)c1=O",
    "Assigned Category": "active"
  },
  {
    "Compound": "Cc1ccc(NC(=O)Nc2nnc(Sc3ncnc4cc(OCCCN5CCOCC5)ccc34)s2)cc1",
    "Assigned Category": "active"
  },
  {
    "Compound": "CN1C(=O)[C@@H](NC(=O)c2n[nH]c(Cc3ccccc3)n2)COc2ccccc21",
    "Assigned Category": "inactive"
  },
  {
    "Compound": "COCCN1CCN(Cc2ccc(-c3n[nH]c4c3C(=O)c3c(NC(=O)NN5CCOCC5)cccc3-4)cc2)CC1",
    "Assigned Category": "active"
  },
  {
    "Compound": "Cc1cc2cc(Oc3ccnc(Nc4cccc(CS(=O)(=O)NCCN(C)C)c4)n3)ccc2[nH]1",
    "Assigned Category": "active"
  },
  {
    "Compound": "CONC(=O)Nc1ccc(-c2sc3c(c2CN(C)C)c(=O)n(-c2ccc(OC)nn2)c(=O)n3Cc2c(F)cccc2F)cc1",
    "Assigned Category": "inactive"
  },
  {
    "Compound": "O=C(c1ccc(NS(=O)(=O)c2cccc3cccnc23)cc1)N1CCN(CC2CC2)CC1",
    "Assigned Category": "inactive"
  },
  {
    "Compound": "CC(C)Oc1ccc(C(=O)N[C@H](CNC(=O)CN(C)C)Cc2ccc(-c3cn4cccc([C@H](C)O)c4n3)cc2)cc1Cl",
    "Assigned Category": "active"
  },
  {
    "Compound": "C[C@@H]1N=C(N)NC(N(C)C)=N1",
    "Assigned Category": "inactive"
  },
  {
    "Compound": "Cn1cc(C[C@@H](N)C(=O)O)c2ccccc21",
    "Assigned Category": "inactive"
  },
  {
    "Compound": "CNc1nccc(-c2cccnc2Oc2cc(C(=O)Nc3cccc(C(F)(F)F)c3)ccc2C)n1",
    "Assigned Category": "active"
  }
]
